- assayed system: recombinant human Meningioma Expressed Antigen 5 (MGEA5), also referred to as O-GlcNAcase (OGA) (Homo sapiens, UniProt O60502)
- Construct: Full length OGA enzyme was purchased at OriGene (cat # TP322411); purchased OriGene TP322411
- Sequence (O60502 whole entry): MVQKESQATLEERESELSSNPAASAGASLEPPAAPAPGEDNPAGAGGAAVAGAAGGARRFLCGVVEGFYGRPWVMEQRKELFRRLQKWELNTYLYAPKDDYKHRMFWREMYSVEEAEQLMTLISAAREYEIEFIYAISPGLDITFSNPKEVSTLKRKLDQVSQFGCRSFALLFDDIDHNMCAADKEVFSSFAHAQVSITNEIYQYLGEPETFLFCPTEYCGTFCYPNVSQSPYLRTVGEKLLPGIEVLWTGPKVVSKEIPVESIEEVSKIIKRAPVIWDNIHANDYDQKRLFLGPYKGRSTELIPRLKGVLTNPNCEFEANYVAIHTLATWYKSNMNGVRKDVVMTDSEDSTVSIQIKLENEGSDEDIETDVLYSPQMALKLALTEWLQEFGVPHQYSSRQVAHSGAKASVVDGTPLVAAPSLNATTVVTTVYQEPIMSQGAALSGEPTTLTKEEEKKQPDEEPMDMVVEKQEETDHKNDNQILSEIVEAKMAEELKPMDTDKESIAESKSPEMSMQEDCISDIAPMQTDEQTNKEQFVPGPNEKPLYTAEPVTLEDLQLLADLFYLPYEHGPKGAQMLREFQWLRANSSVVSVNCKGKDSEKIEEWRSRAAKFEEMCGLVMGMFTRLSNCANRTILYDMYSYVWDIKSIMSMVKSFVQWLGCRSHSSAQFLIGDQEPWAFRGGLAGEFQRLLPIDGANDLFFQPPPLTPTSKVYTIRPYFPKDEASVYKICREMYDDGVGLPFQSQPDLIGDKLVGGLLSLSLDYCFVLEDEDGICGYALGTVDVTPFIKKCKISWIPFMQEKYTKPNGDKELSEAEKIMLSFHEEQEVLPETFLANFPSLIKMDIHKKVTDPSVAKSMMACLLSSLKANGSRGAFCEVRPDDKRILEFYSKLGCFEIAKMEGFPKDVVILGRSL
- assay protocol: OGA biochemical assay: inhibition of FM-GlcNAc hydrolysis, fluorescence (protocol A 10 nM OGA, 1 h; protocol B 2 nM OGA, 6 h)
- test parameters: Enzymatic protocol B (2 nM OGA, 6 h); read-out: Enzymatic Emax (%)
observed property: Emax (%)

Look over these answered cases.
{"columns": ["molecule", "observed property", "units text", "recorded measurement"],
 "data": [
  ["Cn1c(C2CCCN(Cc3ccc4scnc4c3)C2)cc2ncccc21 (stereo not shown)", "Emax", "%", 97.2],
  ["CC(=O)Nc1ncc(CN2CCC(Cc3cc4cnccc4n3C)C2)s1 (stereo not shown)", "Emax", "%", 100],
  ["CC(=O)Nc1ncc(S(=O)(=O)N2CCCC(c3cc4ncccc4[nH]3)C2)s1 (single isomer, unassigned)", "Emax", "%", 99.4]
]}

a: CC(=O)N(C)c1ncc(CN2CCCC(c3cc4ncccc4[nH]3)C2)s1 (stereo not shown)
b: Cn1c(C2CCCN(Cc3ccc4cccnc4c3)C2)cc2ncccc21 (stereo not shown)
Input line: // compare measured Emax between a and b ; output the lower one Reply briefly: the label of your chosen item.
Output line: b

---

Structures can show the parent of a compound that is named as a salt.
observed property: melting point (°C)

{"columns": ["compound", "units text", "melting point"],
 "data": [
  ["CC(=O)Nc1ncc(CN2CCC(Cc3cc4cccnc4n3C)C2)s1 (stereo not drawn)", "°C", 153.79],
  ["CC(=O)Nc1ncc(CN2CCCC(c3nc4ncccc4[nH]3)C2)s1 (single isomer, unassigned) [Compound 18]", "°C", 223.94],
  ["c1cnc2cc(C3CCCN(Cc4ccc5c(c4)OCCO5)C3)[nH]c2c1 (stereo not drawn) (as salt: HCl)", "°C", 178.2],
  ["CC(=O)Nc1ncc(CN2CC[C@@H](Cc3cc4ncccc4n3C)C2)s1", "°C", 187.16],
  ["CC(=O)Nc1ncc(CN2CCC(Cc3cc4cnccc4n3C)C2)s1 (stereo not drawn)", "°C", 195.06],
  ["CCC(=O)Nc1ncc(CN2CCCC(c3cc4ncccc4[nH]3)C2)s1 (stereo not drawn)", "°C", 235],
  ["CC(=O)Nc1ncc(CN2CC[C@H](Cc3cc4ncccc4n3C)C2)s1", "°C", 190.09],
  ["CC(=O)Nc1ncc(CN2CCCC(c3nc4ncccc4[nH]3)C2)s1 (single isomer, unassigned) [Compound 19]", "°C", 228.2],
  ["O=C(CN1CCCC(c2cc3ncccc3[nH]2)C1)N1CCCC1 (stereo not drawn)", "°C", 179.9]
]}

---

- assayed system: recombinant human Meningioma Expressed Antigen 5 (MGEA5), also referred to as O-GlcNAcase (OGA) (Homo sapiens, UniProt O60502)
- Construct: Full length OGA enzyme was purchased at OriGene (cat # TP322411); purchased OriGene TP322411
- assay protocol: OGA biochemical assay: inhibition of FM-GlcNAc hydrolysis, fluorescence (protocol A 10 nM OGA, 1 h; protocol B 2 nM OGA, 6 h)
- test parameters: Enzymatic protocol B (2 nM OGA, 6 h); read-out: Enzymatic hOGA; pIC50 (converted)
observed property: IC50 (nM)

Look over these answered cases.
{"columns": ["compound", "IC50, nM"],
 "data": [
  ["CC(=O)Nc1ncc(CN2CC[C@@H](C)[C@H](c3cc4ncccc4[nH]3)C2)s1 (racemic) [Compound 22]", 22.4],
  ["Cn1c(C2CCCN(Cc3ccc4nsnc4c3)C2)cc2ncccc21 (centres unmarked) [Compound 52]", 3980],
  ["CC(=O)Nc1ncc(CN2CC[C@H](Cc3cc4ncccc4n3C)C2)s1 [Compound 59]", 1.17],
  ["CC(c1ccc2c(c1)OCO2)N1CCCC(c2cc3ncccc3[nH]2)C1 (single isomer, unassigned) [Compound 31]", 26.9],
  ["CC(=O)Nc1ncc(CN2CCCC(c3cc4cnccc4[nH]3)C2)s1 (single isomer, unassigned) [Compound 14]", 676]
]}

1: CC(=O)Nc1ncc(CN2CCCC(c3cc4cccnc4[nH]3)C2)s1 (centres unmarked) [Compound 8]
2: CC(c1ccc2c(c1)OCCO2)N1CCCC(c2cc3ncccc3n2C)C1 (centres unmarked) [Compound 40]
Input line: // compare measured IC50 between 1 and 2 ; output the lower one Reply briefly: the label of your chosen item.
Output line: 2
(2: 61.7 nM, 1: 105 nM)

A: CC(c1ccc2c(c1)OCCO2)N1CCCC(c2cc3ncccc3[nH]2)C1 (single isomer, unassigned) [Compound 37]
B: CC(=O)Nc1ncc(CN2CCCC(Cn3ccc4ncccc43)C2)s1 (centres unmarked) [Compound 64]
C: Cn1c(C2CCCN(Cc3ccc4ccccc4n3)C2)cc2ncccc21 (centres unmarked) [Compound 51]
D: Cn1c(CN2CCCC(c3cc4ncccc4n3C)C2)cc2ccccc21 (centres unmarked) [Compound 54]
Input line: Let's sort these by IC50, smallest first. Go ahead? Labels, ranked as asked.
Output line: B, A, D, C

I: CC(=O)Nc1ncc(CN2CCCC(Cc3cc4ncccc4n3C)C2)s1 (centres unmarked) [Compound 26]
II: CC(=O)Nc1ncc(CN2CCCC(c3cc4cnccc4[nH]3)C2)s1 (centres unmarked) [Compound 12]
Input line: // compare measured IC50 between I and II ; output the lower one Reply briefly: the label of your chosen item.
Output line: I
(I: 2.4 nM, II: 42.7 nM)
